Reference source: patent US20250263490A1

# log10(kon) annotations
Measurement target: T1, recombinant human domain 1-3His6 of the cation-independent mannose-6-phosphate receptor (human, UniProt P11717 41-467)
T1 construct: Biotinylated (NHS-PEG4-biotin) for BLI; Glycosylated; also called hDom1-3His6; hCI-M6PRD1-D3
Protocol: BLI exp 2, dissoc pH 7.4
Measurement kind: log10(kon) (log10 of the value in M⁻¹ s⁻¹)

Binder | log10(kon)
anti-CI-M6PR VHH1 (VHH, His6-tagged; made in Pichia pastoris, later also in E. coli WK6) VHH: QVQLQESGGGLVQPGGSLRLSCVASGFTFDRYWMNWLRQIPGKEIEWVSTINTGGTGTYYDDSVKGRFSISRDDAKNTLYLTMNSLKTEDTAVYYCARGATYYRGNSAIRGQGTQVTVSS | 6.00
anti-CI-M6PR VHH10 (VHH, His6-tagged; made in Pichia pastoris) VHH: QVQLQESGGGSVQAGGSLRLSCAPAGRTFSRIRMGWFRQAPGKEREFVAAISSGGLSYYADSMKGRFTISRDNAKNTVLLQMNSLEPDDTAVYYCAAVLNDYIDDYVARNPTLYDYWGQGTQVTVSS | 4.58
anti-CI-M6PR VHH6 (VHH, His6-tagged; made in E. coli) VHH: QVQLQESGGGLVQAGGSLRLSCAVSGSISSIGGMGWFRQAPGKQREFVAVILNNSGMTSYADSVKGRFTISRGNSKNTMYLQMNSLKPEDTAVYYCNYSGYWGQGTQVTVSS | 5.87
anti-CI-M6PR VHH11 (VHH, His6-tagged; made in Pichia pastoris) VHH: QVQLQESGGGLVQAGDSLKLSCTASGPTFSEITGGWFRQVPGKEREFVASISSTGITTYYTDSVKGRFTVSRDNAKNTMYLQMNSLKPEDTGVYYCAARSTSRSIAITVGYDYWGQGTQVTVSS | 4.88
anti-CI-M6PR VHH7 (VHH, His6-tagged (Pichia pastoris)) VHH: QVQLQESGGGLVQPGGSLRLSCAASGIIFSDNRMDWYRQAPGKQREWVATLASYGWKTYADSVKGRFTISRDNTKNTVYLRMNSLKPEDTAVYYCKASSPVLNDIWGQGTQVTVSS | 6.11
anti-CI-M6PR VHH5 (VHH, His6-tagged; made in Pichia pastoris, later also in E. coli WK6) VHH: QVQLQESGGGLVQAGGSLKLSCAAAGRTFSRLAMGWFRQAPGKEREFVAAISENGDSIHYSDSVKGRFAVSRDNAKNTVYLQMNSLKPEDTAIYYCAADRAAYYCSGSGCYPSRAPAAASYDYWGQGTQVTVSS | 6.26
anti-CI-M6PR VHH4 (VHH, His6-tagged; made in Pichia pastoris) VHH: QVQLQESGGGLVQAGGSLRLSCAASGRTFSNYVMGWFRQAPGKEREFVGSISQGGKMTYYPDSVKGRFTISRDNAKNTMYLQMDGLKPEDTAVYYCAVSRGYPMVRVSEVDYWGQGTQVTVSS | 5.76
anti-CI-M6PR VHH9 (VHH, His6-tagged; made in Pichia pastoris) VHH: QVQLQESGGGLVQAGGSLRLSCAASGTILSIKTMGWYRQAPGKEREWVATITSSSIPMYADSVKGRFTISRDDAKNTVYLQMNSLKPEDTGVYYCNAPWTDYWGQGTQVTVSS | 6.20
anti-CI-M6PR VHH3 (VHH, His6-tagged; made in Pichia pastoris) VHH: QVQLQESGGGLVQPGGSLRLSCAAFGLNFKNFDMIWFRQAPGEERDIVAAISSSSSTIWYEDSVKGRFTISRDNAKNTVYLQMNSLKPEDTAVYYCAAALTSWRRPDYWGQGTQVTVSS | 4.69
